# Experimental Target: UniProt:Q8IC01
# Sequence (Q8IC01 entry or part of it): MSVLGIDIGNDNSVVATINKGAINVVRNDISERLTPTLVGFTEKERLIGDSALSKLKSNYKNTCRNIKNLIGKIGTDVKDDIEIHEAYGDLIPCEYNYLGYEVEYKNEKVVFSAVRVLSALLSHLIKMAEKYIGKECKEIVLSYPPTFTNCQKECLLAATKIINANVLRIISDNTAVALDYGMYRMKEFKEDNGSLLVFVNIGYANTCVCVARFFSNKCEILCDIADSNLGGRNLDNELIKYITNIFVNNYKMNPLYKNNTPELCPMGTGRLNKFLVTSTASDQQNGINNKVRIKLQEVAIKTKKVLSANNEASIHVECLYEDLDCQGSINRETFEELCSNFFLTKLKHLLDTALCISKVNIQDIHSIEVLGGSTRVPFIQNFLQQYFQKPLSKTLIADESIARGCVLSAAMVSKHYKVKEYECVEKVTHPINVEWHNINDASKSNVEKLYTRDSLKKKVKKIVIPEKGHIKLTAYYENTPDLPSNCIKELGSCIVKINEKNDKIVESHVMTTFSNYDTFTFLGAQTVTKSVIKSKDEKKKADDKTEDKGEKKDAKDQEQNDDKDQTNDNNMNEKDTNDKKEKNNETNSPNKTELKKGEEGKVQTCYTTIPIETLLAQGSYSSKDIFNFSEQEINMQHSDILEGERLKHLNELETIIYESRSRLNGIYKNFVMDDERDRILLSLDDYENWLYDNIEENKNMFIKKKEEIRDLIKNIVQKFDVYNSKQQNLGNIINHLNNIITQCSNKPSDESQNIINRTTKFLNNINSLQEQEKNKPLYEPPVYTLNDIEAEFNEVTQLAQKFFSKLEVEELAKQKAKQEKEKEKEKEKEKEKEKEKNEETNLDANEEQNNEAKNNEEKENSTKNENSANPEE
Property Label: Ki

What value of Ki has been reported for the following compound? O=C(O[C@@H]1Cc2c(O)cc(O)cc2O[C@@H]1c1cc(O)c(O)c(O)c1)c1cc(O)c(O)c(O)c1 [EGCG, (−)-Epigallocatechin-3-gallate]
2340 nM

###

# Experimental Target: PfHsp70-1 (Plasmodium falciparum, UniProt Q8IB24)
# Sequence (Q8IB24 entry or part of it): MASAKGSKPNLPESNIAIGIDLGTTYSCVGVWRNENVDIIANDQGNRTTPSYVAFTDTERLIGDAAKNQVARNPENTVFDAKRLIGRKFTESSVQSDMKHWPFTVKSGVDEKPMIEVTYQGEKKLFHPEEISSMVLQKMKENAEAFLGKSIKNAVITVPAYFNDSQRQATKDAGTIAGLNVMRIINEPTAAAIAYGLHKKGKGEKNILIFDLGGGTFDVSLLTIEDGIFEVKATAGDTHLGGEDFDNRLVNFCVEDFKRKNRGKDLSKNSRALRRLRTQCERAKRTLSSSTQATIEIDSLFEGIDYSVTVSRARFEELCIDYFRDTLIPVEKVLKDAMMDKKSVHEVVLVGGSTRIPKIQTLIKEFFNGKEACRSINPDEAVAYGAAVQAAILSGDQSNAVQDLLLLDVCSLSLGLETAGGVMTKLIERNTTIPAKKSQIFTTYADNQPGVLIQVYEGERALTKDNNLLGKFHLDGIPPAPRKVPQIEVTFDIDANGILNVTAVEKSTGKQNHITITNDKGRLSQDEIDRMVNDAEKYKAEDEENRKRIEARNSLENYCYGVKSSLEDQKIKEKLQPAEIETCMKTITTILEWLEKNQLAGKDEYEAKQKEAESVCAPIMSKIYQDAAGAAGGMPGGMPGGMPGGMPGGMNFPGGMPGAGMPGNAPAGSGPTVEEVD
Property Label: pKi
Answers are plain numbers, as −log10 of the molar value.

Test system PfHsp70-1 (Plasmodium falciparum, UniProt Q8IB24); read-out pKi; what value for O=C(O[C@@H]1Cc2c(O)cc(O)cc2O[C@@H]1c1cc(O)c(O)c(O)c1)c1cc(O)c(O)c(O)c1 [EGCG, (−)-Epigallocatechin-3-gallate] ?
5.76

Hello, the source for this data is paper PMC6149709, in case you need it.
